Molecular target: Factor X, P00742
Sequence (P00742 whole entry, looked up): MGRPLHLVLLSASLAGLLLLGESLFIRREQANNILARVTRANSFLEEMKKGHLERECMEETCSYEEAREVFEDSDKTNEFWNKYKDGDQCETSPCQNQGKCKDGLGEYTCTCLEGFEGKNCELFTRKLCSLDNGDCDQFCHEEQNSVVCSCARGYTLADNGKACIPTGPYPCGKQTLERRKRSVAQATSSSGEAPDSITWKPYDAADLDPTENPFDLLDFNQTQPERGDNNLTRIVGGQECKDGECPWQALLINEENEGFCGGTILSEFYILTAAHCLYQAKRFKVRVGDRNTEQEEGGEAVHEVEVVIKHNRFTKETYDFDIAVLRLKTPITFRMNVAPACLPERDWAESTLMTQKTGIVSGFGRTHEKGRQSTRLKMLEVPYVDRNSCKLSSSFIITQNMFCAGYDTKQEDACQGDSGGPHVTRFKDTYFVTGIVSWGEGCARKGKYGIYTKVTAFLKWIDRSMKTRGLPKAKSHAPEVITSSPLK
attributeMeasured: kcat/KM (M⁻¹ s⁻¹)
Give bare numbers, in M⁻¹ s⁻¹.

1) FIXa-Y155F/K247N/N249S/N260S (protein) chain 1: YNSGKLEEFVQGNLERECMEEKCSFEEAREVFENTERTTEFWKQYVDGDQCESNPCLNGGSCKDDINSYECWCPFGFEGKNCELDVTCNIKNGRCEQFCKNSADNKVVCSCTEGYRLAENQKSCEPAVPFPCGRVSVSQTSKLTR chain 2: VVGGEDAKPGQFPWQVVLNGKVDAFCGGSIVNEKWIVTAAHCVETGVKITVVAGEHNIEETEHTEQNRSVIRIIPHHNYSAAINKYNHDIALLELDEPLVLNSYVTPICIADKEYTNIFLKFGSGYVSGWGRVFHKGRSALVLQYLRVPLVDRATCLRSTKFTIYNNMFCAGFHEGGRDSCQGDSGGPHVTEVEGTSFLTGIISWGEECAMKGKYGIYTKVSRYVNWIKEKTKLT; 1.9e+07
2) FIXa-D104N/K106S/Y155F/K247N/N249S/N260S (protein) chain 1: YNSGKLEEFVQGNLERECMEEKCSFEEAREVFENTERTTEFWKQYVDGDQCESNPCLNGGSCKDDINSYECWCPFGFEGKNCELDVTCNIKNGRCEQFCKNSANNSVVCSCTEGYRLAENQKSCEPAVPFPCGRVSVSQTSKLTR chain 2: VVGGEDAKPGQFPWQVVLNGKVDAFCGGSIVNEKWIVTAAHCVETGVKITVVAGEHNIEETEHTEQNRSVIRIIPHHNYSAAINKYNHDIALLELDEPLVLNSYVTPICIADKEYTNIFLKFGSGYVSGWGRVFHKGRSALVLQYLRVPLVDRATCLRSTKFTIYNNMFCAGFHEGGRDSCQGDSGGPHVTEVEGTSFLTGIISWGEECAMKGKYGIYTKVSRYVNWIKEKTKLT; 8.2e+06
3) FIXa-A103N/N105S/Y155F/R318Y/R338E/R403E/E410N (mature FIX numbering) (protein) chain 1: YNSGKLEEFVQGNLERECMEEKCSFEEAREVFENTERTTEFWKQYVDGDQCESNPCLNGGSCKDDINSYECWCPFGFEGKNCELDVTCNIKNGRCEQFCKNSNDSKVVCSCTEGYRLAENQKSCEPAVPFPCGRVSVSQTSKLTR chain 2: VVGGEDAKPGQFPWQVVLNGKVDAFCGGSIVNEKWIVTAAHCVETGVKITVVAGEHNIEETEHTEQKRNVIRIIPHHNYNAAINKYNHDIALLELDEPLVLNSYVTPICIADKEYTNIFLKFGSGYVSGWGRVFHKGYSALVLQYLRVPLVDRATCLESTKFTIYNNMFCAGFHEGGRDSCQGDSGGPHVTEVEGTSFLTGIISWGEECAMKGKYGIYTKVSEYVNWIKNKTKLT; 1.3e+08

For every item below, please supply its kcat/KM.
1. FIXa-Y155F/K247N/N249S/R318Y/R338E/T343R/R403E/E410N (protein) chain 1: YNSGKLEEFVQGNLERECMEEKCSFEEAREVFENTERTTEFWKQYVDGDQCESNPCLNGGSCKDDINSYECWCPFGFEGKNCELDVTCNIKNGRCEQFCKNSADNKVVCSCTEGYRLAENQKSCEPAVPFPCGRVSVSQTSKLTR chain 2: VVGGEDAKPGQFPWQVVLNGKVDAFCGGSIVNEKWIVTAAHCVETGVKITVVAGEHNIEETEHTEQNRSVIRIIPHHNYNAAINKYNHDIALLELDEPLVLNSYVTPICIADKEYTNIFLKFGSGYVSGWGRVFHKGYSALVLQYLRVPLVDRATCLESTKFRIYNNMFCAGFHEGGRDSCQGDSGGPHVTEVEGTSFLTGIISWGEECAMKGKYGIYTKVSEYVNWIKNKTKLT
2. FIXa-R338E/T343R/R403E (protein) chain 1: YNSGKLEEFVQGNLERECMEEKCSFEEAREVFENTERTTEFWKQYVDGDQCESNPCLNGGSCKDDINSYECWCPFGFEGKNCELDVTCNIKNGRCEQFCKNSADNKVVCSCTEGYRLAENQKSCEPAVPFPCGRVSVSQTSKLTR chain 2: VVGGEDAKPGQFPWQVVLNGKVDAFCGGSIVNEKWIVTAAHCVETGVKITVVAGEHNIEETEHTEQKRNVIRIIPHHNYNAAINKYNHDIALLELDEPLVLNSYVTPICIADKEYTNIFLKFGSGYVSGWGRVFHKGRSALVLQYLRVPLVDRATCLESTKFRIYNNMFCAGFHEGGRDSCQGDSGGPHVTEVEGTSFLTGIISWGEECAMKGKYGIYTKVSEYVNWIKEKTKLT

1: 4e+08; 2: 3.1e+08

Here are 2 proteins. What values of kcat/KM were reported for them?
1. FIXa-Y155F/R318Y/R338E/N346D/R403E/E410N (protein) chain 1: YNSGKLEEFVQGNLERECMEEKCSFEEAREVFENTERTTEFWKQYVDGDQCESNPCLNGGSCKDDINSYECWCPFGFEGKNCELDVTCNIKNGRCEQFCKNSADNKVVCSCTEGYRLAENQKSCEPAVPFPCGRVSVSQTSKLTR chain 2: VVGGEDAKPGQFPWQVVLNGKVDAFCGGSIVNEKWIVTAAHCVETGVKITVVAGEHNIEETEHTEQKRNVIRIIPHHNYNAAINKYNHDIALLELDEPLVLNSYVTPICIADKEYTNIFLKFGSGYVSGWGRVFHKGYSALVLQYLRVPLVDRATCLESTKFTIYDNMFCAGFHEGGRDSCQGDSGGPHVTEVEGTSFLTGIISWGEECAMKGKYGIYTKVSEYVNWIKNKTKLT
2. FIXa-D104N/K106S/R318Y/R338E/R403E/E410N (mature FIX numbering) (protein) chain 1: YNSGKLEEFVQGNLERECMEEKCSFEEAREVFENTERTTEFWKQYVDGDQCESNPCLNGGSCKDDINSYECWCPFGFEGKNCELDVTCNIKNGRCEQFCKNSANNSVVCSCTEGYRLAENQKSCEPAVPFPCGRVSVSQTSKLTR chain 2: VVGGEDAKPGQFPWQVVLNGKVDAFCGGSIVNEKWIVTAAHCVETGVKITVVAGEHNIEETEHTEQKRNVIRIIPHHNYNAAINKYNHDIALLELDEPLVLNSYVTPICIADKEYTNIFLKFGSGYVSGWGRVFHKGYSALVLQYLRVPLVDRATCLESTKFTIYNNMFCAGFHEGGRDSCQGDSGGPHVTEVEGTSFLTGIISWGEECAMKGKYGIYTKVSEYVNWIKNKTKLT

1. 6.2e+07
2. 1.7e+08
